# credit: the Immune Epitope Database (IEDB)

Molecular target: HLA-A*02:16
Assay: IEDB peptide-MHC binding, purified MHC/competitive/fluorescence; filed as Kd, often an IC50 or EC50 that approximates it; bounds were set here for any values at or beyond the usual limits of such assays
Conditions: source organism: Homo sapiens
pKd: −log10 of the molar value.
endpoint.name: pKd

1) SSDLRSWTF | ≤ 4.70

###

Parameter IC50: see the listing below.
Biological target: HLA-A*25:01
Assay: IEDB peptide-MHC binding, purified MHC/competitive/fluorescence; bounds were set here for any values at or beyond the usual limits of such assays
Conditions: source organism: Homo sapiens
endpoint.name: IC50

1) ELFARSSDPR | ≥ 20 µM
2) RQSSGSSSSGF | ≥ 20 µM
3) LVTMGTGTFGR | ≥ 20 µM
